molecular target: Glutaminase kidney isoform, mitochondrial (Homo sapiens) (UniProt O94925); test: qHTS for Inhibitors of Glutaminase (GLS); settings: GLS enzymatic activity, qHTS titration; series mostly up to 45.5 µM
Sequence (O94925 whole entry, looked up, canonical isoform): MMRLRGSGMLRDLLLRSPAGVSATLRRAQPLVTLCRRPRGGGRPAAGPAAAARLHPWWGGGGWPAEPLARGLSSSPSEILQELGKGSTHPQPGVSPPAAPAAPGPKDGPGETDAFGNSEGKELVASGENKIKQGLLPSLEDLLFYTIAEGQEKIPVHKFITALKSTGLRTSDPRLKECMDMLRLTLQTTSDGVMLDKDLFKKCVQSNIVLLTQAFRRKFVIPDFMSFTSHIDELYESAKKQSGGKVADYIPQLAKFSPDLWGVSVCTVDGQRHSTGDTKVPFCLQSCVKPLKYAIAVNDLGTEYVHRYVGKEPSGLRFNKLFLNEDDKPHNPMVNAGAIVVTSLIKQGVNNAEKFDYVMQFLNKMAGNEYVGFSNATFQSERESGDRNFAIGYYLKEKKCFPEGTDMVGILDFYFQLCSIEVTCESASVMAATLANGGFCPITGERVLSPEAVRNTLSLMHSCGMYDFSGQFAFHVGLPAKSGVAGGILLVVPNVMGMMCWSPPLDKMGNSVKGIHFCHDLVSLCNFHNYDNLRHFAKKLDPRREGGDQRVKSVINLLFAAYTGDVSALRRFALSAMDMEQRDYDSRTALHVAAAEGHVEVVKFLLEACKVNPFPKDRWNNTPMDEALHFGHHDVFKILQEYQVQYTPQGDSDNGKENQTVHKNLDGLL
Out of some 410,000 compounds screened, about 850 (0.21%) were called active. Roughly 2% stayed inconclusive and do not appear here. The call rests on the fitted dose curve; in most records, active means well fitted inhibition curve with a large enough effect; inconclusive means small, poorly fitted or top-dose-only effect, or another doubt; inactive means no such curve, though single readings can be large or run the other way. The list comes from a sample in which actives are over-represented; it also holds close analogues and randomly drawn compounds.
Possible outcomes: active, inactive

{"COMPOUND": "COc1ccc(C2=NOC3(CC(=O)N(c4ccc(Cl)cc4)C3=O)C2)c(OC)c1 (centres undefined)", "CLASS ASSIGNMENT": "inactive"}
{"COMPOUND": "CC1(C)S[C@@H]2[C@H](NC(=O)COc3ccccc3)C(=O)N2C1C(=O)OCc1ccccc1 (some centres undefined)", "CLASS ASSIGNMENT": "inactive"}
{"COMPOUND": "Cc1ccc(S(=O)(=O)n2nc(C)c(S(=O)(=O)N3CCCCCC3)c2C)cc1", "CLASS ASSIGNMENT": "inactive"}
{"COMPOUND": "COc1ccc(C)cc1N(C)C(=O)c1c(C)oc2ncnc(N3CCOCC3)c12", "CLASS ASSIGNMENT": "inactive"}
{"COMPOUND": "CC(C)(O)c1ccccc1CC[C@H](SCC1(CC(=O)O)CC1)c1cccc(/C=C/c2ccc3ccc(Cl)cc3n2)c1", "CLASS ASSIGNMENT": "inactive"}
{"COMPOUND": "COc1ccc(/C=N/NC(=O)Cn2cc(C(F)(F)F)ccc2=O)cc1", "CLASS ASSIGNMENT": "inactive"}
{"COMPOUND": "CC(C)(C)C1C/C(=C/c2ccco2)C(=O)/C(=C/c2ccco2)C1 (centres undefined)", "CLASS ASSIGNMENT": "active"}
{"COMPOUND": "CCNCCC(=O)N1c2ccccc2Sc2ccc(NC(=O)OCC)cc21", "CLASS ASSIGNMENT": "active"}
{"COMPOUND": "Cc1ccc(-c2ncc(Cl)cc2-c2ccc(S(C)(=O)=O)cc2)cn1", "CLASS ASSIGNMENT": "inactive"}
{"COMPOUND": "Cc1ccc(NC(=O)Cn2sc3ccccc3c2=O)cc1", "CLASS ASSIGNMENT": "active"}
{"COMPOUND": "COc1cc([C@H](Cc2ccccc2)NC(C)=O)oc(=O)c1", "CLASS ASSIGNMENT": "active"}
{"COMPOUND": "CC(O)COc1ccccc1 (centres undefined)", "CLASS ASSIGNMENT": "inactive"}
{"COMPOUND": "CCOC(=O)Cc1cccc(-c2cc(CCCCCCc3ccc(O[C@H]4O[C@H](COC(C)=O)[C@@H](OC(C)=O)[C@H](OC(C)=O)[C@@H]4OC(C)=O)c(-c4cccc(CC(=O)OCC)c4)c3)ccc2O[C@H]2O[C@H](COC(C)=O)[C@@H](OC(C)=O)[C@H](OC(C)=O)[C@@H]2OC(C)=O)c1", "CLASS ASSIGNMENT": "inactive"}
{"COMPOUND": "CCOc1cccc2c1N[C@@H](c1ccc(C(=O)O)cc1)[C@H]1CC=C[C@@H]21", "CLASS ASSIGNMENT": "active"}
{"COMPOUND": "CC(=O)c1ccc(S(=O)(=O)NCCC(=O)N2CCN(c3ccccn3)CC2)cc1", "CLASS ASSIGNMENT": "inactive"}
{"COMPOUND": "COc1ccc(CNC(=O)C(Cc2ccccc2)n2cccc2)cc1 (centres undefined)", "CLASS ASSIGNMENT": "inactive"}
{"COMPOUND": "Oc1ccc(Cl)c2c1CCC2", "CLASS ASSIGNMENT": "inactive"}
{"COMPOUND": "C/C=C1\\C2C=C(C)CC1(N)c1ccc(=O)[nH]c1C2 (centres undefined)", "CLASS ASSIGNMENT": "inactive"}
{"COMPOUND": "CCCC[C@H]1C(=O)N(c2ccccc2)N(c2ccc(O)cc2)C1=O", "CLASS ASSIGNMENT": "inactive"}
{"COMPOUND": "COCCCn1c(SCC(=O)NC2CCCC2)nnc1-c1ccccc1", "CLASS ASSIGNMENT": "inactive"}
{"COMPOUND": "COCCn1c(Cc2cccn2C)nnc1SCC(=O)Nc1nccs1", "CLASS ASSIGNMENT": "inactive"}
{"COMPOUND": "CCOC(=O)Nc1ccc2c(c1)N(C(=O)CN1CCN3CCCC3C1)c1ccccc1CC2 (centres undefined)", "CLASS ASSIGNMENT": "inactive"}
{"COMPOUND": "O=C1c2c(O)cccc2[C@@H]([C@@H]2O[C@H](CO)[C@@H](O)[C@H](O)[C@H]2O)c2cc(CO)cc(O)c21", "CLASS ASSIGNMENT": "inactive"}
{"COMPOUND": "CCN(CC)C(=O)CSc1nc2ccsc2c(=O)n1Cc1ccccc1Cl", "CLASS ASSIGNMENT": "inactive"}
{"COMPOUND": "CO/N=C(\\C(=O)N[C@@H]1C(=O)N2C(C(=O)O)=C(Cn3nnc(C)n3)CS[C@H]12)c1csc(N)n1", "CLASS ASSIGNMENT": "inactive"}
{"COMPOUND": "C=CC1=C(C(=O)O)N2C(=O)[C@@H](NC(=O)/C(=N\\OCC(=O)O)c3csc(N)n3)[C@H]2SC1", "CLASS ASSIGNMENT": "active"}
{"COMPOUND": "C[C@]12CC[C@@H]3c4ccc(O)cc4C[C@@H](CCCCCCCCCS(=O)CCCC(F)(F)C(F)(F)F)C3[C@@H]1CC[C@@H]2O (some centres undefined)", "CLASS ASSIGNMENT": "inactive"}
{"COMPOUND": "CCC1CCCCN1C(=O)CSc1nc2c(c(=O)n(C)c(=O)n2C)n1C (centres undefined)", "CLASS ASSIGNMENT": "inactive"}
{"COMPOUND": "CCOC(=O)CSc1nc2c(c(=O)n(Cc3ccccc3Cl)c(=O)n2C)n1C", "CLASS ASSIGNMENT": "active"}
{"COMPOUND": "CCOC(=O)C1Nc2ccc(C(F)(F)F)cc2C2C=CCC12 (centres undefined)", "CLASS ASSIGNMENT": "inactive"}
{"COMPOUND": "COc1ccc2oc(C(=O)NCC(Cc3ccccc3)N(C)C)c(C)c2c1 (centres undefined)", "CLASS ASSIGNMENT": "inactive"}
{"COMPOUND": "COc1cccc(CC(=O)N2CCCC(CCC(=O)N3CCN(c4ccccn4)CC3)C2)c1 (centres undefined)", "CLASS ASSIGNMENT": "inactive"}
{"COMPOUND": "CCOC(=O)C1=CCC2C(=O)N(Cc3ccccc3)C(=O)C12 (centres undefined)", "CLASS ASSIGNMENT": "inactive"}
{"COMPOUND": "COCCCn1c(Cc2csc(Nc3cccc(Cl)c3)n2)nnc1SCC(=O)OC1CCCCC1", "CLASS ASSIGNMENT": "active"}
{"COMPOUND": "CC1(C)OC2CC(=O)OC[C@@]23C1CC(=O)[C@]1(C)C3CC[C@@]2(C)C(c3ccoc3)OC(=O)C3O[C@@]321 (some centres undefined)", "CLASS ASSIGNMENT": "inactive"}
{"COMPOUND": "O=C(Nc1cccc(C(F)(F)F)c1)c1cc(Br)cc(Br)c1O", "CLASS ASSIGNMENT": "inactive"}
{"COMPOUND": "CCOC(=O)Nc1ccc2c(c1)N(C(=O)CCCl)c1ccccc1[S@]2=O", "CLASS ASSIGNMENT": "inactive"}
{"COMPOUND": "CCOc1cccc(CC(=O)N2CCc3c([nH]c4ccccc34)C2c2ccc(F)cc2)c1OCC (centres undefined)", "CLASS ASSIGNMENT": "inactive"}
{"COMPOUND": "Cc1ccnc(SC2CC(=O)N(c3ccccc3)C2=O)n1 (centres undefined)", "CLASS ASSIGNMENT": "inactive"}
